Below, each entry is listed alongside its reported HEMATOCRIT.
Species: Rattus norvegicus
protocol-notes: DrugMatrix - Regimen: Daily Repeat
Type: toxicity, organism-based, Sprague-Dawley
Set-up: regimen Daily Repeat, gender Male, age 6-8 weeks
condition-set: in vivo, po, 0 mg/kg, 120 h, tissue Blood, route oral GAVAGE, dose level Control, time 5 day, vehicle .5 % CMC

| compound | HEMATOCRIT / % |
| --- | --- |
| CC(C)Cc1ccc([C@H](C)C(=O)O)cc1 | 44.35 |
| O=C(O)CCc1nc(-c2ccccc2)c(-c2ccccc2)o1 | 35.28 |
| Cc1cc2c(s1)Nc1ccccc1N=C2N1CCN(C)CC1 | 36.1 |
| CN(C)CCC=C1c2ccccc2COc2ccccc21 [DOXEPIN] | 36.55 |
| CCN1CCN(c2cc3c(cc2F)c(=O)c(C(=O)O)cn3C2CC2)CC1 | 41.12 |
| COc1ccc(Cl)cc1C(=O)NCCc1ccc(S(=O)(=O)NC(=O)NC2CCCCC2)cc1 [GLYBURIDE] | 37.08 |
| Cl.NC[C@H]1CC[C@H](C(=O)Oc2ccc(CCC(=O)O)cc2)CC1 [CETRAXATE HYDROCHLORIDE] | 35.92 |
| Nc1ccc(C(=O)O)c(O)c1 | 37.08 |
| CC(=O)Nc1ccc2c(c1)Cc1ccccc1-2 | 33.98 |
| CCN1CCCC1CNC(=O)c1cc(S(N)(=O)=O)ccc1OC (configuration not stated) [SULPIRIDE] | 35.28 |
| COc1cc(/C=C/C(=O)O)ccc1O [FERULATE] | 35.92 |
| CC(C)NCC(O)COc1ccc(CC(N)=O)cc1 (configuration not stated) | 36.55 |
| O=C1c2ccccc2C(=O)C1c1ccccc1 | 45.47 |
| COc1cc(NC(C)CCCN)c2ncccc2c1 (configuration not stated) | 40.02 |
| NC(=O)NC(=O)Cc1ccccc1 [PHENACEMIDE] | 33.37 |
| CC(C)(C#N)c1cc(Cn2cncn2)cc(C(C)(C)C#N)c1 | 35.63 |
| CCN1C[C@]2(COC)[C@H](O)C[C@H](OC)[C@@]34[C@@H]5C[C@@]6(O)[C@H](OC(=O)c7ccccc7)[C@@H]5[C@@](OC(C)=O)([C@@H]([C@H](OC)[C@H]23)[C@@H]14)[C@@H](O)[C@@H]6OC | 45.47 |
| CCOc1cc(N)c(Cl)cc1C(=O)NCC1CN(Cc2ccc(F)cc2)CCO1 (configuration not stated) [MOSAPRIDE] | 33.98 |
| NCC(CC(=O)O)c1ccc(Cl)cc1 (configuration not stated) | 33.98 |
| NC(=O)CN1CCCC1=O | 33.8 |
| CN(C)CCOC(c1ccccc1)c1ccccc1.Cn1c(=O)c2[nH]c(Cl)nc2n(C)c1=O [DIMENHYDRINATE] | 35.52 |
| CCN(CC)CCNC(=O)c1cc(Cl)c(N)cc1OC [METOCLOPRAMIDE] | 41.12 |

----------
Parameter: LIPASE. Scope: all listed entries.
Organism: Rattus norvegicus
protocol-notes: DrugMatrix - Regimen: Daily Repeat
Assay type: toxicity, organism-based, Sprague-Dawley
Design: regimen Daily Repeat, gender Male, age 6-8 weeks
condition-set: in vivo, po, 1500 mg/kg, 120 h, tissue Plasma, route oral GAVAGE, dose level High, time 5 day, vehicle .5 % CMC

| compound | LIPASE / u/L |
| --- | --- |
| O=C(O)CCc1nc(-c2ccccc2)c(-c2ccccc2)o1 [OXAPROZIN] | 11.33 |
| Cc1ccc(S(=O)(=O)NC(=O)NN2CCCCCC2)cc1 [TOLAZAMIDE] | 9.33 |
| CC[C@H]1OC(=O)[C@H](C)[C@@H](O[C@H]2C[C@@](C)(OC)[C@@H](O)[C@H](C)O2)[C@H](C)[C@@H](O[C@@H]2O[C@H](C)C[C@H](N(C)C)[C@H]2O)[C@](C)(O)C[C@@H](C)C(=O)[C@H](C)[C@@H](O)[C@]1(C)O [ERYTHROMYCIN] | 9.33 |
| COc1cc(/C=C/C(=O)O)ccc1O [FERULATE] | 9.67 |
